test-target: murine CLDN18.2 (mCLDN18.2) (murine) (UniProt P56857)
protocol-details: FACS, HEK293-mCLDN18.2 cells
Catalogue of EC50 readings, one per entry.
Write down the numeric answer in nM and omit the unit.

Some solved cases for reference:
[[record]]
binder = "ch-253C4 (antibody, V domains shown, also called chimeric antibody of clone 253C4) VH: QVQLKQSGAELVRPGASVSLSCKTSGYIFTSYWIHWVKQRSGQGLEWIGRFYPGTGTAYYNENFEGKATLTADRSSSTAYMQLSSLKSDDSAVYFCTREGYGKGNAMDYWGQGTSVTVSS VL: DIVMTQSPSSLTVTTGEKVTLSCKSSQSLLNSGNQKNYLTWYQQKSGQPPELLIYWASTRESGVPDRFTGSGSGTDFTLTVSSVQAEDLAVYYCQNDYYFPFTFGGGTKLEIK"
unit_symbol = "nM"
reported = 0.79

[[record]]
binder = "ch-40G7 (antibody, V domains shown, also called chimeric antibody of clone 40G7) VH: QVQLQQPGTELVKPGASVKLSCKASGYTFTNYWMHWVKQRPGHGLEWIGMIHPNSYSTNYNEKFRSKATLTVDKSSSTAYMQLSSLTSEDSAVYYCTRIYYGNAMDYWGQGTSVTVSS VL: DIVMTQSPSSLTVTAGERVTMSCKSSQSLFNSGNQKNYLTWYHQKPGQPPKLLIYWAFTRESGVPDRFTGSGSGTDFTLTIRSVQAEDLAVYYCQNDYSYPFTFGSGTKLEIK"
unit_symbol = "nM"
reported = 1.11

[[record]]
binder = "ch-43F5 (antibody, V domains shown, also called chimeric antibody of clone 43F5) VH: QVQLQQPGAELVKPGTSVKLSCKASGYTFTSYWTHWVKQRPGQGLEWIGMIHPNSGSSNYNEKFKSKATLTVDKSSSTAYMQLRRLTSEDSAVYYCTRIHYGNAMDYWGQGTSVTVSS VL: DIVMTQSPSSLTVTAGEKVTMTCKSSQSLLNSGNQKNYLTWYQQKPGQPPKLLIYWASTRESGVPDRFTGSGSGTDFTLTISSVQAEDLAIYYCQNDYSFPFTFGSGTKLEIK"
unit_symbol = "nM"
reported = 1.13

[[record]]
binder = "ch-241F7 (antibody, V domains shown, also called chimeric antibody of clone 241F7) VH: EVQLQQSGPELEKPGASVKISCKASGYSFTAYNMNWVRQRNGKSLEWIGNIDPYYGGTNYNQKFKGKATLTVDKSSSTAYMQLKSLTSEDSAVYFCATVYYGNSLIYWGQGTLVTVSA VL: DIVMTQSPSSLTVTAGEKVTMSCKSSQSLLNSGNQKNYLTWYQQKPGQPPKLLIYWASTRESGVPDRFTGTGSGTDFTLTISSVQAEDLAVYYCQNNYFYPLTFGAGTQLELK"
unit_symbol = "nM"
reported = 1.16


ch-42D2 (antibody, V domains shown, also called chimeric antibody of clone 42D2) VH: EVQLQQSGPVLVKPGASVKMSCKASGYTFTDYQMNWVKQSHGKSLEWIGFINPYNGGIRYNQKFKGKATLTVDKSSSTAYMELNSLTSEDSAVYYCATIYFGNSFANWGQGTLVTVSA VL: DIVMTQSPSSLTVTAGEKVTMSCKPSQSLLNSGNQKNYLTWYQQKPGQPPRLLIYWASTRESGVPDRFTGSGSGTDFTLTISSVQAEDLAVYYCQNDYIYPYTFGGGTNLEIK yielded EC50 of 0.764

ch-39C8 (antibody, V domains shown, also called chimeric antibody of clone 39C8) VH: QVQLQQSGAGLVKPGASVKISCKASGYAFSSYWMIWVKQRPGKGLEWIGQIYPGDGDTNYNGKFKGKATLTADKSSSTAFMQLSSLTSEDSAVYFCTRIYYGNAFAYWGQGTLVTVSA VL: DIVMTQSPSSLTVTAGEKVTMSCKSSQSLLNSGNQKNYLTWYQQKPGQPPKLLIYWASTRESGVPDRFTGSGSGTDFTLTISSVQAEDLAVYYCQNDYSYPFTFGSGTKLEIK yielded EC50 of 1.63

ch-287F12 (antibody, V domains shown, also called chimeric antibody of clone 287F12) VH: QIQLVQSGPELKRPGETVRISCKASGFTFTTAGMHWVQKMAGKGLKWLGWTNTHSGEPKYAEDFKGRFAFSLDTSGSDAYLQIGNLKYEDAATYFCAKWGRGNALDYWGQGTSVTVSS VL: DIVMTQSPSSLTVTAGEKVTMTCKSSQSLLNSGNQKNYLTWYQQKPGQPPKLLIYWASTRESGVPDRFTGSGSGTDFTLTINTVQAEDLAVYYCQNTYSYPLTFGGGTKLELR yielded EC50 of 1.14
